target entity: E3 ubiquitin-protein ligase XIAP (Homo sapiens) (UniProt P98170)
Sequence (P98170 whole entry, looked up): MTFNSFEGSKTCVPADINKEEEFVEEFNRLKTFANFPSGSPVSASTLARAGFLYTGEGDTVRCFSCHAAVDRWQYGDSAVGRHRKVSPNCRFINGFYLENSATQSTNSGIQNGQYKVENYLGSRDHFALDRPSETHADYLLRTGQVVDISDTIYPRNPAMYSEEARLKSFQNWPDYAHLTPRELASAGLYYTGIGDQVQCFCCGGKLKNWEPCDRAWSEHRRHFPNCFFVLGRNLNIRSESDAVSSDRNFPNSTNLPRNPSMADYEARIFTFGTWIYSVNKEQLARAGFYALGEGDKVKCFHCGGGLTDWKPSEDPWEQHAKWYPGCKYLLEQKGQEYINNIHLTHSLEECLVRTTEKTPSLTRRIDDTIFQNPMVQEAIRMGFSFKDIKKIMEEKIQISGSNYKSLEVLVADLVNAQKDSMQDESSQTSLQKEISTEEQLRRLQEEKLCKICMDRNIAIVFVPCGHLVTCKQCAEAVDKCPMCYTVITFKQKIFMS
protocol description: XIAP binders, primary screen, biophysical, small-molecule microarray, fluorescence 635 nm (AID 1181);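 note: score merges 667 nm emission and signal to noise over triplicate slides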
experimental setup: small-molecule microarray binding, higher = more signal
Quick rule for you: composite z-score at -0.1 or higher means Condition met, lower means Condition not met.

Below are worked cases with known answers.
[[record]]
compound = "CC(C)=CCCC(C)=CCON=C1C[C@@H](O)[C@@H](O)[C@@H]2[C@@H]3C(=O)N([C@@H](C)c4ccccc4)C(=O)[C@@H]3CC[C@@H]12"
discrete_label = "Condition met"

[[record]]
compound = "COC(OC)[C@@H](C)[C@H](OC)[C@@H](C)[C@H](OC)c1ccccc1"
discrete_label = "Condition not met"


Note: attention shifts to another entry.
Exercise: Threshold query (composite z-score >= -0.1) on CO[C@@H]1[C@H](O)CO[C@H]1C=Cc1ccccc1
Key: Condition not met

---

target entity: E3 ubiquitin-protein ligase XIAP (Homo sapiens) (UniProt P98170)
protocol description: XIAP binders, primary screen, biophysical, small-molecule microarray, fluorescence 635 nm (AID 1181);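 note: score merges 667 nm emission and signal to noise over triplicate slides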
experimental setup: small-molecule microarray binding, higher = more signal
parameter measured: composite z-score
Form rule: numeric answer, no unit written next to it.

Solved entries:
[[record]]
compound = "C[C@H]1CC[C@@H](C(=O)O)N[C@@H]1c1cccc(N2CCCC2=O)c1"
target_entity = "E3 ubiquitin-protein ligase XIAP (Homo sapiens) (UniProt P98170)"
parameter_measured = "composite z-score"
measured = 0.0909

[[record]]
compound = "COc1ccc(COC(=O)NN=C2C[C@@H](O)[C@@H](O)[C@@H]3[C@@H]4C(=O)N(C[C@@H]5CCCO5)C(=O)[C@@H]4CC[C@@H]23)cc1"
target_entity = "E3 ubiquitin-protein ligase XIAP (Homo sapiens) (UniProt P98170)"
parameter_measured = "composite z-score"
measured = -0.0559

[[record]]
compound = "CC(C)(C)N1C(=O)[C@H]2[C@H]3[C@H](O)[C@H](O)CC(=NOC[C@@H](O)COCc4ccco4)[C@@H]3CC[C@H]2C1=O"
target_entity = "E3 ubiquitin-protein ligase XIAP (Homo sapiens) (UniProt P98170)"
parameter_measured = "composite z-score"
measured = -0.173

[[record]]
compound = "COC(=O)[C@@H]1CC[C@H](C)[C@@H](c2ccc(C)cc2)N1C(=O)c1ccc(C=NOC[C@H]2O[C@H](c3ccccc3)C=C[C@@H]2Oc2ccc(OC)cc2)cc1"
target_entity = "E3 ubiquitin-protein ligase XIAP (Homo sapiens) (UniProt P98170)"
parameter_measured = "composite z-score"
measured = -0.0773

[[record]]
compound = "CC(C)=CCCC(C)=CCON=C1[C@H]2CCn3c(=O)n(-c4ccccc4)c(=O)n3[C@H]2[C@H](O)[C@@H]2O[C@H]12"
target_entity = "E3 ubiquitin-protein ligase XIAP (Homo sapiens) (UniProt P98170)"
parameter_measured = "composite z-score"
measured = 0.293


Exercise: Find the recorded composite z-score belonging to CC(C)C(=O)N[C@H]1CCCN1C(=O)C=Cc1ccccc1 and report it.
Key: -0.0476

Exercise: Find the recorded composite z-score belonging to CCOC(=O)[C@H](CC(C)C)NC(=O)CCC1CC(OC(=O)NCCc2ccc(F)cc2)CC2(CCCC(COC(=O)NCCOC)O2)O1 (stereo partly specified) and report it.
Key: -0.18

Exercise: Find the recorded composite z-score belonging to CCCNC(=O)OC[C@H]1O[C@H](CCON=C[C@@H](NS(=O)(=O)c2ccc(C)cc2)[C@H](C)C=CCC(=O)OC)C=C[C@@H]1Oc1ccc(OC)cc1 and report it.
Key: -0.207

Exercise: Find the recorded composite z-score belonging to CCOC(=O)NN=C1C[C@@H](O)[C@@H](O)[C@@H]2[C@@H]3C(=O)N(c4ccc(F)cc4F)C(=O)[C@@H]3CC[C@H]12 and report it.
Key: -0.176

Exercise: Find the recorded composite z-score belonging to O=C1[C@H]2CCn3c(=O)n(Cc4cc5c(cc4Cl)OCO5)c(=O)n3[C@H]2[C@H](O)[C@@H]2O[C@H]12 and report it.
Key: -0.146

Exercise: Find the recorded composite z-score belonging to CCOC(=O)CCN1C(=O)[C@H]2[C@H]3[C@H](O)[C@H](O)CC(=NOCC(C)C)[C@@H]3CC[C@H]2C1=O and report it.
Key: 0.0819

Exercise: Find the recorded composite z-score belonging to CC(C)=NO[C@@H](C)c1cn([C@H](CO)Cc2ccccc2)nn1 and report it.
Key: 0.314

Exercise: Find the recorded composite z-score belonging to CC(C)CON=C1C[C@@H](O)[C@@H](O)[C@@H]2[C@@H]3C(=O)N(Cc4ccc5c(c4)OCO5)C(=O)[C@@H]3CC[C@@H]12 and report it.
Key: -0.102
